The reported measurements were obtained from paper PMC8368996.

Target: NEDD4L WW2 domain (UniProt Q96PU5 385-418)
Sequence (Q96PU5 385-418): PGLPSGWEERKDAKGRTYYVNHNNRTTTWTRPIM
Test: FP
Ends that are not written are not given here. Oregon Green 488 maleimide = Oregon Green 488 maleimide fluorescent label attached to the N-terminal cysteine
Quick list: pKd per entry.
Field pKd (float): negative decimal logarithm of the concentration in molar.

Answered examples (2):
BINDER | pKd
C(Oregon Green 488 maleimide)LMRYQHPPEYGAARP [AMOT PPxY3 peptide (residues 278-292), Oregon Green 488-labelled] | 3.55
C(Oregon Green 488 maleimide)MQNNEELPTYEEAKV [AMOT PPxY1 peptide (residues 100-114), Oregon Green 488-labelled] | 4.47

Below: the item to evaluate.
Task: Suppose we examine the binder C(Oregon Green 488 maleimide)MEHRGPPPEYPFKGM [AMOT PPxY2 peptide (residues 233-247), Oregon Green 488-labelled] ; what pKd value has been reported?
Result: 4.52
